Recorded inhibition, one value per entry.
- Target Or System: Bromodomain-containing protein 4 (Homo sapiens)
- Test Summary: Inhibition of human BRD4 BD2 (342 to 460 residues) at 30 uM preincubated for 30 mins followed by substrate addition measured after 30 mins by TR-FRET assay relative to control
Respond numerically; units are % and should not be typed.

- Compound: "CC1C(=O)Nc2ccccc2N1C(=O)c1cccc(-c2ccccc2)c1 (stereo not given)"
  Units: "%"
  inhibition: 23.1
- Compound: "COc1cc(C(=O)Nc2c(C)noc2C)cc(-c2ccccc2)c1"
  Units: "%"
  inhibition: 36.3
- Compound: "COc1cc(C(=O)N2CCC(=O)Nc3ccccc32)cc(-c2ccccc2)c1"
  Units: "%"
  inhibition: 67.1
- Compound: "COc1cc(C(=O)N2c3ccccc3NC(=O)C2C)cc(-c2ccccc2)c1 (stereo not given)"
  Units: "%"
  inhibition: 36.2

Shift focus to the following entry.
GET /values?item= O=C1CCN(C(=O)c2cccc(-c3ccccc3)c2)c2ccccc2N1 &system= Bromodomain-containing protein 4 (Homo sapiens) returns inhibition: 54.2
